IC50 values, listed per item
System: CHPV
method: microbe, parasite or virus in culture
assay_setup: Chandipura virus, BHK-21, in Mesocricetus auratus, 24 h, read-out: Anti-CHPV Activity IC50 (CHPV-induced metabolic shut-down)

compound | value_prefix | IC50, µM
Cc1cc2c(cc1O)NC(=O)CC2c1cc(C(C)(C)C)[nH]n1 (stereo not drawn) | = | 11
COc1ccc(C2CC(=O)Nc3cc(O)c(C)cc32)cc1Cn1cccn1 (stereo not drawn) | = | 8
NC(=O)c1ncn([C@@H]2O[C@H](CO)[C@@H](O)[C@H]2O)n1 [Ribavirin, reference compound] | > | 100

* * *

assay_target: CHPV RNP (Chandipura virus, UniProt P13179)
pIC50: −log10 of the molar value.

molecule | pIC50
COc1ccc(C2CC(=O)Nc3cc(O)c(C)cc32)cc1Cn1cccn1 (stereo not shown) | 5.48

* * *

Tested on: HPIV-3
method: microbe, parasite or virus in culture
assay_setup: Human respirovirus 3, HeLa, 72 h, read-out: Anti-HPIV-3 activity IC50
observation_type: IC50 (µM)

compound | quantitative_result
NC(=O)c1ncn([C@@H]2O[C@H](CO)[C@@H](O)[C@H]2O)n1 [Ribavirin, reference compound] | 21

* * *

method: in vitro
assay_setup: hamster

compound | CC50
COc1ccc(C2CC(=O)Nc3cc(O)c(C)cc32)cc1Cn1cccn1 (stereo not drawn) | > 100 µM
NC(=O)c1ncn([C@@H]2O[C@H](CO)[C@@H](O)[C@H]2O)n1 [Ribavirin, reference compound] | 86 µM
Cc1cc2c(cc1O)NC(=O)CC2c1cc(C(C)(C)C)[nH]n1 (stereo not drawn) | > 100 µM

* * *

System: VSV
method: microbe, parasite or virus in culture
Format: cell-based
assay_setup: Vesicular stomatitis virus, BHK-21, in Mesocricetus auratus, 24 h, read-out: % Inhibition Metabolic Shut-down (CCK Assay)
Kindly return Fulfilled if reported inhibition at 17 µM is no lower than 60%; return Not fulfilled if it is lower.

compound | assay_target | class_name
Cc1cc2c(cc1O)NC(=O)CC2c1ccc(Oc2ccccc2)cc1 (centres unmarked) [VPI G] | VSV | Not fulfilled
COc1ccc(C2CC(=O)Nc3cc(O)c(C)cc32)cc1Cn1cccn1 (centres unmarked) [VPI A] | VSV | Fulfilled
Cc1cc2c(cc1O)NC(=O)CC2c1cc2ccccc2n1C (centres unmarked) [VPI D] | VSV | Not fulfilled
Cc1cc2c(cc1O)NC(=O)CC2c1c[nH]nc1-c1ccc(F)cc1 (centres unmarked) [VPI C] | VSV | Not fulfilled
Cc1cc2c(cc1O)NC(=O)CC2c1cc(C(C)(C)C)[nH]n1 (centres unmarked) [VPI B] | VSV | Fulfilled
COc1cc2c(cc1C1CC(=O)Nc3cc(O)c(C)cc31)OCCCO2 (centres unmarked) [VPI H] | VSV | Not fulfilled
COc1cc2c(cc1C1CC(=O)Nc3cc(O)c(C)cc31)CCC2 (centres unmarked) [VPI E] | VSV | Not fulfilled
Cc1cc2c(cc1O)NC(=O)CC2c1ccc(-c2cc[nH]n2)o1 (centres unmarked) [VPI F] | VSV | Not fulfilled

* * *

method: in vitro
assay_setup: human
Attribute: CC50

compound | CC50
Cc1cc2c(cc1O)NC(=O)CC2c1cc(C(C)(C)C)[nH]n1 (stereo not drawn) | > 100 µM
NC(=O)c1ncn([C@@H]2O[C@H](CO)[C@@H](O)[C@H]2O)n1 [Ribavirin, reference compound] | > 100 µM
COc1ccc(C2CC(=O)Nc3cc(O)c(C)cc32)cc1Cn1cccn1 (stereo not drawn) | > 100 µM

* * *

System: CHPV
assay_setup: read-out: Anti-CHPV Activity IC50 (CHPV-induced metabolic shut-down)

compound | IC50 / µM
COc1ccc(C2CC(=O)Nc3cc(O)c(C)cc32)cc1Cn1cccn1 (stereo not shown) [VPI A] | 7.9

* * *

System: VSV
method: microbe, parasite or virus in culture
Format: cell-based
assay_setup: Vesicular stomatitis virus, BHK-21, in Mesocricetus auratus, 24 h, read-out: % Inhibition Nuclear Condensation (Cell Imaging)
Tag: class 1 if measured inhibition at 17 µM is not below 70%, class 0 if it is.

compound | class_name
Cc1cc2c(cc1O)NC(=O)CC2c1ccc(Oc2ccccc2)cc1 (centres unmarked) | class 0
COc1cc2c(cc1C1CC(=O)Nc3cc(O)c(C)cc31)CCC2 (centres unmarked) | class 1
Cc1cc2c(cc1O)NC(=O)CC2c1c[nH]nc1-c1ccc(F)cc1 (centres unmarked) | class 0
COc1cc2c(cc1C1CC(=O)Nc3cc(O)c(C)cc31)OCCCO2 (centres unmarked) | class 0
COc1ccc(C2CC(=O)Nc3cc(O)c(C)cc32)cc1Cn1cccn1 (centres unmarked) | class 1
Cc1cc2c(cc1O)NC(=O)CC2c1cc2ccccc2n1C (centres unmarked) | class 0
Cc1cc2c(cc1O)NC(=O)CC2c1cc(C(C)(C)C)[nH]n1 (centres unmarked) | class 1

* * *

Recorded IC50 for the following compounds
System: VSV
method: microbe, parasite or virus in culture
assay_setup: Vesicular stomatitis virus, HeLa, in Homo sapiens, 65 h, read-out: Anti-VSV Activity IC50 (VSV-induced metabolic shut-down)

compound | assay_target | units_label | IC50
COc1ccc(C2CC(=O)Nc3cc(O)c(C)cc32)cc1Cn1cccn1 (stereo not drawn) | VSV | µM | 0.4
NC(=O)c1ncn([C@@H]2O[C@H](CO)[C@@H](O)[C@H]2O)n1 [Ribavirin, reference compound] | VSV | µM | 15
Cc1cc2c(cc1O)NC(=O)CC2c1cc(C(C)(C)C)[nH]n1 (stereo not drawn) | VSV | µM | 1

* * *

Test system: VSV
assay_setup: read-out: Anti-VSV Activity IC50 (VSV-induced metabolic shut-down)
pIC50: −log10 of the molar value.

compound | pIC50
COc1ccc(C2CC(=O)Nc3cc(O)c(C)cc32)cc1Cn1cccn1 (stereo not shown) | 6.38

* * *

assay_target: VSV RNP (Vesicular stomatitis Indiana virus, UniProt P03523)
Sequence (P03523 whole entry, looked up): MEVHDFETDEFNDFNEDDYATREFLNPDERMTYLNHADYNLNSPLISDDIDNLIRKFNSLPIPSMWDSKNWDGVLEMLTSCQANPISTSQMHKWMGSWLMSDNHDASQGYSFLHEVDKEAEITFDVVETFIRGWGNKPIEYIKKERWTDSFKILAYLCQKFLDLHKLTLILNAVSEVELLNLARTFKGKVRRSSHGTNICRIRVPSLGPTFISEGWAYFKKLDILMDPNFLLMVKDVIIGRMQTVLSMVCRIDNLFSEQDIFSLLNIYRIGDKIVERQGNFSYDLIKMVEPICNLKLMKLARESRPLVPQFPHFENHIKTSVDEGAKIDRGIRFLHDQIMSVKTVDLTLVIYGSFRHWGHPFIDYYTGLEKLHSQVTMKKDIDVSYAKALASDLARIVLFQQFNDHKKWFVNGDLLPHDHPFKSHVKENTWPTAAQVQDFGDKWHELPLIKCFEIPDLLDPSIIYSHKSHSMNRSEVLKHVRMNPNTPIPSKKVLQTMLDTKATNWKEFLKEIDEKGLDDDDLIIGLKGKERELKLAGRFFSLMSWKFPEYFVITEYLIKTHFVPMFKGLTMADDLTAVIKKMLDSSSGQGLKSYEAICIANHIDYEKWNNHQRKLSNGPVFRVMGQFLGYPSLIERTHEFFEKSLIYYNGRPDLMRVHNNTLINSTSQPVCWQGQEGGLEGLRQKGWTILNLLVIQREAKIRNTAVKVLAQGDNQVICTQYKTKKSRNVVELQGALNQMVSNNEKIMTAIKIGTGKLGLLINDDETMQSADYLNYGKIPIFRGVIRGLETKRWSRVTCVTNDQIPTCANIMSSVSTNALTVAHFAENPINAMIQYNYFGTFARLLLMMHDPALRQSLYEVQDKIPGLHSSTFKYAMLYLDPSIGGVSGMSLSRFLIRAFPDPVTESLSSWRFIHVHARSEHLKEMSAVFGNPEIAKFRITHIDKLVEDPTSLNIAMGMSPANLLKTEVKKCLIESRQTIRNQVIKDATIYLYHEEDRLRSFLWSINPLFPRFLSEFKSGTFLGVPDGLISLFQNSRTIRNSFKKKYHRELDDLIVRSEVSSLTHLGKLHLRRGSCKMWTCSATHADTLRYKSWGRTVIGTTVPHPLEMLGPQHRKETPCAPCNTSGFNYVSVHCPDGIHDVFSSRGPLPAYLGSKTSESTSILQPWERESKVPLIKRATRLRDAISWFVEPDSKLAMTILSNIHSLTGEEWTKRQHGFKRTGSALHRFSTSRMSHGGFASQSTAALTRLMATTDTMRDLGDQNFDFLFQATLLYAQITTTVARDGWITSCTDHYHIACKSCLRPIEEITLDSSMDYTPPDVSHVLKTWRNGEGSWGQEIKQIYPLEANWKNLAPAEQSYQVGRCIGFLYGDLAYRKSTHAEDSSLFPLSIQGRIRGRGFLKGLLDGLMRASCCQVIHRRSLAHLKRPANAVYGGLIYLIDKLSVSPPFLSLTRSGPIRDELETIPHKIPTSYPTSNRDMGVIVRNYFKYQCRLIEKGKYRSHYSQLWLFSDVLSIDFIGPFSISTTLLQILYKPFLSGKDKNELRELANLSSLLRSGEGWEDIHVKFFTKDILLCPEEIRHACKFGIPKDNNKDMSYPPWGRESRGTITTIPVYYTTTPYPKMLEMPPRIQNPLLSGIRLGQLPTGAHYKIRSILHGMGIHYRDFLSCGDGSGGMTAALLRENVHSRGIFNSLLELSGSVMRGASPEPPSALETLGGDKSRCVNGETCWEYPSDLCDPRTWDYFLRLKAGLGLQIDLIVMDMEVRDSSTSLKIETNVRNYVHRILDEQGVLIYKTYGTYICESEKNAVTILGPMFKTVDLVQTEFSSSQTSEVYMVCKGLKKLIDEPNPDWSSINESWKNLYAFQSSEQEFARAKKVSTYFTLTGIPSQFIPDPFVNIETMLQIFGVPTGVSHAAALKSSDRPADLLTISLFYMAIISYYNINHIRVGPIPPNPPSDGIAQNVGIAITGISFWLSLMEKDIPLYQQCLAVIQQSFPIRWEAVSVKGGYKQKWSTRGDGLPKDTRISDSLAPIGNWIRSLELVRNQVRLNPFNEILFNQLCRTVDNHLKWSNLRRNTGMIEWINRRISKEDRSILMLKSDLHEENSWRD
method: biochemical
Format: biochemical
assay_setup: read-out: % Inhibition mRNA Synthesis (In vitro Transcription)
observation_type: inhibition at 20 µM (%)

molecule | observation_type | quantitative_result
Cc1cc2c(cc1O)NC(=O)CC2c1ccc(Oc2ccccc2)cc1 (stereo not drawn) | inhibition at 20 µM | 68
COc1cc2c(cc1C1CC(=O)Nc3cc(O)c(C)cc31)OCCCO2 (stereo not drawn) | inhibition at 20 µM | 73
Cc1cc2c(cc1O)NC(=O)CC2c1cc(C(C)(C)C)[nH]n1 (stereo not drawn) | inhibition at 20 µM | 89

* * *

Below is a list of entries, each paired with its recorded inhibition at 20 µM value.
assay_target: VSV RNP (Vesicular stomatitis Indiana virus)
method: biochemical
Type: biochemical
assay_setup: read-out: % Inhibition mRNA Synthesis (In vitro Transcription)

compound | inhibition at 20 µM
Cc1cc2c(cc1O)NC(=O)CC2c1ccc(-c2cc[nH]n2)o1 (centres unmarked) [VPI F] | 34%
COc1cc2c(cc1C1CC(=O)Nc3cc(O)c(C)cc31)CCC2 (centres unmarked) [VPI E] | 72%
Cc1cc2c(cc1O)NC(=O)CC2c1cc2ccccc2n1C (centres unmarked) [VPI D] | 72%
COc1ccc(C2CC(=O)Nc3cc(O)c(C)cc32)cc1Cn1cccn1 (centres unmarked) [VPI A] | 99%
Cc1cc2c(cc1O)NC(=O)CC2c1c[nH]nc1-c1ccc(F)cc1 (centres unmarked) [VPI C] | 72%

All figures here come from paper PMC6783830.
